The reported numbers originate from the supplement of paper PMC9170038.

System: MS2 coat protein
experimentalProtocol: apparent KD of MS2 coat protein; higher = weaker reporter binding
conditionSet: Eterna round: R107; input ligand: theophylline 2 mM
Recorded apparent KD of MS2 coat protein by entry
reportedProperty: apparent KD of MS2 coat protein

1. CCUCAUGAACAUGAGGAUCACCCAUGUACACGAGGACCGGUACGGCCGCCACUCGAAUAACCUAAAUAUAAAUAAUAAUAAUAGG [5' end split MS2] :: 18.1 nM
2. GGACUAACCAGAAGGAGCGACACGCAGAAACUGCAAUUUCCUCCACACGAGGAUCACCCGUGUCAGGUAGGUCGCUGGUUAGUCG :: 31 nM
3. GGACUAACUCGAAGGAGCGACACGCAGAAACUGCAAUUUCCUCCACACGAGGAUCACCCGUGUCAGGUAGGUCGCGAGUUAGUCG [ArgBX 29] :: 28 nM
4. CUAUAAAUAGCGGCCGCCACUUACUCAUGAGGUAACAACAUGAGGAUCACCCAUGUUUGAGGAUCAAGGACCGGGCUAUUUAUAG [AstrosSSTryB#8] :: 36.1 nM
5. UUACCGUAAGGUAUACCGGUCUACAAUAAUCGAGGACCGGUACGGCCGCCACUCGAUGUGUAAUCACAUGAGGAUCACCCAUGUA [Tryptophan A 19] :: 27.4 nM
6. AUACAUGAGGAUCACCCAUGUUAUAGUGAAGGAGCGACAUUUAUGUCAGGUAGGUCGCACUAUUGUUUAAUGAUUCUUGGAUCUU [JR_ExcArginiA_Sub017] :: 15.1 nM
